// data source = paper PMC11402776

Target: cell lysate PK (A549) (Homo sapiens, UniProt P14618)
Sequence (P14618 2-531): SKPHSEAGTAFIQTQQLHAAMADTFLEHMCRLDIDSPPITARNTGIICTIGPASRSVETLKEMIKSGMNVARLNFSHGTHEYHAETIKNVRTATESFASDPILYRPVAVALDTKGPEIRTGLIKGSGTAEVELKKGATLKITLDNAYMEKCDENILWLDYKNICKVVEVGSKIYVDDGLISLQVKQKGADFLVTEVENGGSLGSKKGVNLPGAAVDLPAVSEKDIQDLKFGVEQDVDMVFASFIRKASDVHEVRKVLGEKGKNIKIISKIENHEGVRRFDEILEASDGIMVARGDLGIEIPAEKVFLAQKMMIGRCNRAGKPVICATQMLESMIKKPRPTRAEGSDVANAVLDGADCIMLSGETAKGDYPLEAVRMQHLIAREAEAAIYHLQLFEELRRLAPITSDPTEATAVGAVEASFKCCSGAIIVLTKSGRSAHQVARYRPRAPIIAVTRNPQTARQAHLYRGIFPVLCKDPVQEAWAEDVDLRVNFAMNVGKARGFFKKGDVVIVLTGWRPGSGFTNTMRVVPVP
Experiment: PK activity assay, A549 cell lysate
Conditions: read-out: AC50FBP, with AIM
recorded.metric: pEC50
Note: pEC50 values are expressed as the negative base-10 logarithm of concentration in M.

-- ask Quick check: pEC50 of O=C(COP(=O)(O)O)[C@@H](O)[C@H](O)[C@H](O)COP(=O)(O)O [FBP] ?
-- reply 6.17

* * *

Target: cell lysate PK (SK-HEP-1) (Homo sapiens, UniProt P14618)
Sequence (P14618 2-531): as above
Assay: PK activity assay, SK-HEP-1 cell lysate
Conditions: read-out: AC50FBP; SK-HEP-1 lysate; Control (without AIM)
recorded.metric: pEC50
Note: pEC50 values are expressed as the negative base-10 logarithm of concentration in M.

-- ask Quick check: pEC50 of O=C(COP(=O)(O)O)[C@@H](O)[C@H](O)[C@H](O)COP(=O)(O)O ?
-- reply 7.54
